Compiled pIC50 measurements on Serine/threonine-protein kinase PLK1 (Homo sapiens) taken from the literature.
Sequence (P53350 whole entry): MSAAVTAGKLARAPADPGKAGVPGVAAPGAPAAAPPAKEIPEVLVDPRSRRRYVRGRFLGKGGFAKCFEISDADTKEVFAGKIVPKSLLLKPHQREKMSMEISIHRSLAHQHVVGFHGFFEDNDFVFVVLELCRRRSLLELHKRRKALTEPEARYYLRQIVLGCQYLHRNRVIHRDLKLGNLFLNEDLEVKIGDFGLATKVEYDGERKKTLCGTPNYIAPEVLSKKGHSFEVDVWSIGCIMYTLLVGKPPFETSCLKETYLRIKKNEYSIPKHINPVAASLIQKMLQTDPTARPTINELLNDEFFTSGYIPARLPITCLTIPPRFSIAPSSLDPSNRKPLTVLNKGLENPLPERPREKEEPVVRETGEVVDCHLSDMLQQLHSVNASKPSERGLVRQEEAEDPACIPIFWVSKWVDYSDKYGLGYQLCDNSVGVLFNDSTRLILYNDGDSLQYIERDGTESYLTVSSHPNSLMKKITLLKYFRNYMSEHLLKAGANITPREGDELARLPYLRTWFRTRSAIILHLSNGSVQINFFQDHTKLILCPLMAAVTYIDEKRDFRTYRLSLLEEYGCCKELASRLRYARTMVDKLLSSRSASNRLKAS
pIC50: −log10 of the molar value.
QUANTITY: pIC50

- COMPOUND: "Cc1nn(-c2cc(Cl)cc(Cl)c2)c2cc(N[C@@H](C)c3ccccc3)ncc12"
  QUANTITY: "pIC50"
  COMPARISON_SYMBOL: "="
  READING: 6.19
- COMPOUND: "COc1cccc(F)c1-c1ccnc(Nc2cccc(Cn3cnc4ccccc43)c2)n1"
  QUANTITY: "pIC50"
  COMPARISON_SYMBOL: "<"
  READING: 4.90
- COMPOUND: "CN1CCN(c2ccc(OC(F)(F)F)c(Nc3ncc4c(n3)-c3c(c(C(N)=O)nn3CCCN)CC4)c2)CC1"
  QUANTITY: "pIC50"
  COMPARISON_SYMBOL: "="
  READING: 7.28
- COMPOUND: "O=C1Cc2cnc3ccnn3c2-c2ccccc2N1"
  QUANTITY: "pIC50"
  COMPARISON_SYMBOL: "<"
  READING: 4.00
- COMPOUND: "CC(=O)Nc1ccc2c(c1)NC(=O)/C2=C/c1ccc2cn[nH]c2c1"
  QUANTITY: "pIC50"
  COMPARISON_SYMBOL: "<"
  READING: 5.00
- COMPOUND: "CCCCCCCSc1ccc(C(=O)Nc2ccccc2C(=O)O)cc1"
  QUANTITY: "pIC50"
  COMPARISON_SYMBOL: "="
  READING: 4.54
- COMPOUND: "O=C1Nc2ccc(Br)cc2/C1=C/c1ccc(O)c(O)c1"
  QUANTITY: "pIC50"
  COMPARISON_SYMBOL: "<"
  READING: 5.00
- COMPOUND: "Cc1nc(C)c(-c2ccnc(Nc3ccc(O)cc3)n2)s1"
  QUANTITY: "pIC50"
  COMPARISON_SYMBOL: "="
  READING: 5.30
- COMPOUND: "CCCCN(C)C(=O)c1cc2c(C)n[nH]c2s1"
  QUANTITY: "pIC50"
  COMPARISON_SYMBOL: "<"
  READING: 4.70
- COMPOUND: "CCc1ccc2c(c1)/C(=C\\c1ccc3c(/C=C/c4cccnc4)n[nH]c3c1)C(=O)N2"
  QUANTITY: "pIC50"
  COMPARISON_SYMBOL: "<"
  READING: 5.00
- COMPOUND: "COc1ccc(C(=O)NCc2cccc(C(=O)Nc3ccc4c(c3)CNCC4)c2)cc1OC"
  QUANTITY: "pIC50"
  COMPARISON_SYMBOL: "<"
  READING: 5.00
- COMPOUND: "Cc1nc(-c2ccccc2)n2nc(N)ncc12"
  QUANTITY: "pIC50"
  COMPARISON_SYMBOL: "<"
  READING: 5.00
- COMPOUND: "Cn1nc(C(=O)NCc2ccccc2)c2c1-c1nc(Nc3ccccc3)ncc1CC2"
  QUANTITY: "pIC50"
  COMPARISON_SYMBOL: "<"
  READING: 5.00
- COMPOUND: "Cn1cc(-c2cc3[nH]nc(-c4cccc(S(N)(=O)=O)c4)c3cc2NC2CCCCC2)cn1"
  QUANTITY: "pIC50"
  COMPARISON_SYMBOL: "<"
  READING: 5.30
- COMPOUND: "COc1cc(Nc2ncc3c(C)nc(-c4ccccc4Br)n3n2)cc(OC)c1OC"
  QUANTITY: "pIC50"
  COMPARISON_SYMBOL: "="
  READING: 5.57
- COMPOUND: "COc1cc2ncn(-c3cc(OCc4cccc(N)c4)c(C(N)=O)s3)c2cc1OC"
  QUANTITY: "pIC50"
  COMPARISON_SYMBOL: "="
  READING: 7.68
- COMPOUND: "CCc1cccc(CC)c1NC(=O)c1nn(C)c2c1CCc1cnc(Nc3ccc(C(=O)N4CCC[C@H]4CN4CCCC4)cc3OC(F)(F)F)nc1-2"
  QUANTITY: "pIC50"
  COMPARISON_SYMBOL: "<"
  READING: 5.00
- COMPOUND: "COCCn1nc(C(N)=O)c2c1-c1nc(Nc3cc(N4CCN(C)CC4)ccc3OC(F)(F)F)ncc1CC2"
  QUANTITY: "pIC50"
  COMPARISON_SYMBOL: "="
  READING: 7.82
- COMPOUND: "COc1cc2ncn(-c3cc(OCc4cccc(C#N)c4)c(C(N)=O)s3)c2cc1OC"
  QUANTITY: "pIC50"
  COMPARISON_SYMBOL: "="
  READING: 7.00
- COMPOUND: "O=C(NC1CCCCC1)c1cc2c(-c3ccccc3)n[nH]c2s1"
  QUANTITY: "pIC50"
  COMPARISON_SYMBOL: "="
  READING: 4.92
- COMPOUND: "COc1cc(-c2cnc(N)c(N3CC[C@@H](C(=O)O)[C@@H](C)[C@H]3C)n2)cc(OC)c1OC"
  QUANTITY: "pIC50"
  COMPARISON_SYMBOL: "="
  READING: 4.71
- COMPOUND: "CNc1nccc(-c2cccnc2Oc2ccc(Nc3nnc(-c4ccc(F)cc4)c4ccccc34)cc2)n1"
  QUANTITY: "pIC50"
  COMPARISON_SYMBOL: "<"
  READING: 4.60
- COMPOUND: "CCOC(=O)/C(C#N)=c1\\s/c(=C/Nc2ccccc2F)c(=O)n1CC"
  QUANTITY: "pIC50"
  COMPARISON_SYMBOL: "="
  READING: 6.80
- COMPOUND: "CCOc1ccc(Nc2ncc3c(n2)-c2ccccc2NC(=O)C3)cc1"
  QUANTITY: "pIC50"
  COMPARISON_SYMBOL: "<"
  READING: 4.00
- COMPOUND: "CC[C@@H]1C(=O)N(C)c2cnc(-n3ccnc3-c3ccc(F)cc3)nc2N1C1COC1"
  QUANTITY: "pIC50"
  COMPARISON_SYMBOL: "<"
  READING: 4.30
- COMPOUND: "C[N+](C)(C)[C@H](CCOc1ccc(Br)cc1Br)C(=O)[O-]"
  QUANTITY: "pIC50"
  COMPARISON_SYMBOL: "<"
  READING: 3.90
- COMPOUND: "CCOc1cc(C(=O)NC2CCN(C)CC2)ccc1Nc1ncc2c(n1)N(Cc1cccc(Br)c1)[C@H](CC)C(=O)N2C"
  QUANTITY: "pIC50"
  COMPARISON_SYMBOL: "="
  READING: 6.96
- COMPOUND: "CC(=O)N(C)c1cccc(Nc2nc(NCCc3cccs3)ncc2-c2nn[nH]n2)c1"
  QUANTITY: "pIC50"
  COMPARISON_SYMBOL: "="
  READING: 6.48
- COMPOUND: "NS(=O)(=O)c1cccc(-c2n[nH]c3ccc(NC(=O)C(c4ccsc4)N4CCCC4)cc23)c1 (racemic)"
  QUANTITY: "pIC50"
  COMPARISON_SYMBOL: "<"
  READING: 4.30
- COMPOUND: "CCN1CCC(Oc2ccc(Nc3ncc4c(F)cn(-c5cccc(C(C)(C)O)n5)c4n3)cc2)CC1"
  QUANTITY: "pIC50"
  COMPARISON_SYMBOL: "="
  READING: 7.41
- COMPOUND: "COc1ccc2c(c1)NC(=O)Cc1cnc(Nc3ccc(O)c(Cl)c3)nc1-2"
  QUANTITY: "pIC50"
  COMPARISON_SYMBOL: "="
  READING: 6.44
- COMPOUND: "CC(Oc1cc(-n2cnc3ccc(OC4CCN(C)CC4)cc32)ccc1C(N)=O)c1ccccc1C(F)(F)F (racemic)"
  QUANTITY: "pIC50"
  COMPARISON_SYMBOL: "="
  READING: 6.72
- COMPOUND: "O=C1Cc2cnc(Nc3ccccc3Cl)nc2-c2ccccc2N1"
  QUANTITY: "pIC50"
  COMPARISON_SYMBOL: "="
  READING: 4.14
- COMPOUND: "CC1=C/C(=N/OC(=O)c2ccccc2C)C(C)=CC1=O"
  QUANTITY: "pIC50"
  COMPARISON_SYMBOL: "="
  READING: 5.85
- COMPOUND: "COc1cc2ncn(-c3cc(OCC4CCCC4)c(C(N)=O)s3)c2cc1OC"
  QUANTITY: "pIC50"
  COMPARISON_SYMBOL: "="
  READING: 7.47
- COMPOUND: "CCc1cccc(CC)c1NC(=O)c1nn(C)c2c1CCc1cnc(Nc3ccc(C(=O)N4CCC[C@H]4CN4CCCC4)cc3OC)nc1-2"
  QUANTITY: "pIC50"
  COMPARISON_SYMBOL: "<"
  READING: 5.00
- COMPOUND: "COc1cc2ncn(-c3cc(OCc4ccccc4C(F)(F)F)c(C(N)=S)s3)c2cc1OC"
  QUANTITY: "pIC50"
  COMPARISON_SYMBOL: "="
  READING: 8.22
- COMPOUND: "COc1cc(Nc2ncc3c(C)nc(-c4ccc(F)cc4)n3n2)cc(OC)c1OC"
  QUANTITY: "pIC50"
  COMPARISON_SYMBOL: "="
  READING: 7.10
- COMPOUND: "CCCCCCCCCc1ccc(C(=O)Nc2cc(C)ccc2C(=O)O)cc1"
  QUANTITY: "pIC50"
  COMPARISON_SYMBOL: "="
  READING: 4.55
